Molecular target: T1, 4Ig-B7H3 (human, UniProt Q5ZPR3 27-461, limits assumed)
T1 construct: also called 4Ig-B73H3
T1 sequence (looked up): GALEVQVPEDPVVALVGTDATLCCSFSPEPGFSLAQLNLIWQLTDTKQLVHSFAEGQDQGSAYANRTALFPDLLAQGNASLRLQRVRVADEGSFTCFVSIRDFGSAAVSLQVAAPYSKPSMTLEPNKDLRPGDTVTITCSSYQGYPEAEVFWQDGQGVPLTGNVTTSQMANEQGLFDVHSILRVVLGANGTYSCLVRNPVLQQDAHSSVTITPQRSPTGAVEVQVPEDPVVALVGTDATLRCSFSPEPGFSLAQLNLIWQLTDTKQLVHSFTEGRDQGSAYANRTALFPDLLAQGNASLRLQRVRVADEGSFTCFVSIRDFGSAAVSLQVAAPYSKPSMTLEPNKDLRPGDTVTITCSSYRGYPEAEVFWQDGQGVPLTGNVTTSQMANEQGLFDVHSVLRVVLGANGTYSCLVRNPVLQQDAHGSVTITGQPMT
Assay: SPR (Biacore T-100), 4Ig-B7H3 on CM5 chip, scFv injected
Lab note: cut-off is 10 nM. Strictly less in Kd is fulfilled. Exactly 10 nM or more is not fulfilled.

1) hu8H9 clone S7.17 scFv (scFv, not shown: FLAG and His tags) scFv: QVQLVQSGAEVVKPGASVKLSCKTSGYTFTNYDINWVRQRPGQGLEWVGWIFPGDGSTQYNEKFKGKATLTTDTSTSTAYMELSSLRSEDTAVYFCARQTTSTWFAYWGQGTLVTVSSGGGGSGGGGSGGGGSEIVMTQSPATLSVSPGERVTLSCRASQPISDYLYWYQQKSHESPRLLIKYASQSISGIPARFSGSGSGSEFTLTINSVEPEDVGVYYCQNGYSFPLTFGQGTKLELKR    fulfilled
2) hu8H9 clone S7.28 scFv (scFv, not shown: FLAG and His tags) scFv: QVQLVQSGAEVVKPGASVKLSCKTSGYTFTNYDINWVRQRPGQGLEWIGWIFPGDGSTQYNEKFKGKATLTTDTSTSTAYMELSSLGSEDTAVYFCTRQTTATWFAYWGQGTLVTVSSGGGGSGGGGSSGGGSEIVMTQSPATLSVSPGERVTLSCRASQSIGDYLYWYQQKSHESPRLLIKYASQSISGIPARFSGSGSGSEFTLTINSVEPEDVGVYYCQNGHSFPLTFGQGTKLELKR    not fulfilled
3) hu8H9 clone S7.2 scFv (scFv, not shown: FLAG and His tags) scFv: QVQLVQSGAEVVKPGASCKLSCKTSGYTFTNYDINWVRQRPGQGLEWIGWIFPGDGSTQYNEKFKGKATLTTDTSTSTAYMELSSLRSEDTAVYFCARQTTATWFAYWGQGTLVTVSSGGGGSGGGGSGGVGSEIVMTQSPATLSVSPGERVTLSCRASQSIGDYLYWYQQKSHESPRLLIKYASQSISGIPARFSGSGSGSEFTLTINSVEPEDVGVYYCQNGHSFPLTFGQGTKLELKR    fulfilled

Determine if hu8H9 H3L3 scFv (scFv, also called parental hu8H9 H3L3; not shown: FLAG and His tags) scFv: QVQLVQSGAEVVKPGASVKLSCKASGYTFTNYDINWVRQRPEQGLEWIGWIFPGDGSTQYNEKFKGKATLTTDTSTSTAYMELSSLRSEDTAVYFCARQTTATWFAYWGQGTLVTVSSGGGGSGGGGSGGGGSEIVMTQSPATLSVSPGERVSLSCRASQSISDYLHWYQQKSHESPRLLIKYASQSISGIPARFSGSGSGSEFTLTINSVEPEDVGVYYCQNGHSFPLTFGQGTKLELKR shows Kd strictly lower than 10 nM.
not fulfilled

Hi there! Is Kd for hu8H9 clone S7.29 scFv (scFv, not shown: FLAG and His tags) scFv: QVQLVQSGAEVVKPGASVKLSCKTSGYTFTNYDINWVRQRPGQGLEWIGWIFPGDGSTQYNEKFKGKATLTTDTSTSTAYLELSSLGSEDTAVYFCARQTTGTWFAYWGQGTLVTVSSGGGGSGGGGSGGGGSEIVMTQSPATLSVSPGERVTLSCRASQSISDYLYWYQQKSHESPRLLIKYASQSISGIPARFSGSGSGSEFTLTINSVEPEDVGVYYCQNGHSFPLTFGQGTKLELKR below 10 nM, do you know?
fulfilled
